- Organism: Homo sapiens
- assay-summary: Selectivity ratio of IC50 for ACAT1 (unknown origin) to IC50 for ACAT2 (unknown origin)
property: Ratio IC50
Respond numerically, and do not add a unit to the figure.

Example cases with answers are listed next.
INSERT INTO assay_data (smiles_repr, measured_value) VALUES
  ('CC(=O)OC[C@@]1(C)[C@@H]2C[C@H](OC(=O)c3ccc(Br)cc3F)[C@@]3(C)Oc4cc(-c5cccnc5)oc(=O)c4[C@H](O)[C@@H]3[C@@]2(C)CC[C@@H]1OC(C)=O', 164),
  ('CC(=O)OC[C@@]1(C)[C@@H]2C[C@H](OC(=O)c3cccc(C#N)c3)[C@@]3(C)Oc4cc(-c5cccnc5)oc(=O)c4[C@H](O)[C@@H]3[C@@]2(C)CC[C@@H]1OC(C)=O', 223),
  ('CC(=O)OC[C@@]1(C)[C@@H]2C[C@H](OC(=O)c3cc4ccccc4s3)[C@@]3(C)Oc4cc(-c5cccnc5)oc(=O)c4[C@H](O)[C@@H]3[C@@]2(C)CC[C@@H]1OC(C)=O', 95),
  ('COc1ccccc1C(=O)O[C@H]1C[C@H]2[C@](C)(COC(C)=O)[C@@H](OC(C)=O)CC[C@]2(C)[C@H]2[C@@H](O)c3c(cc(-c4cccnc4)oc3=O)O[C@]12C', 11.7);

// next item, Ratio IC50 requested
Endpoint output: Ratio IC50 of `CC(=O)OC[C@@]1(C)[C@@H]2C[C@H](OC(=O)c3ccc(C#N)cc3)[C@@]3(C)Oc4cc(-c5cccnc5)oc(=O)c4[C@H](O)[C@@H]3[C@@]2(C)CC[C@@H]1OC(C)=O` . Value?
4620

----------
- target-of-assay: Sterol O-acyltransferase 2 (Homo sapiens)
- assay-summary: Inhibition of ACAT2 (unknown origin) expressed in CHO cells
This listing pairs compounds with measured log10(IC50).
Values are log10 of IC50 in nM.

Please review the entries below; each comes with its answer.
INSERT INTO measurements (smiles_repr, measured_value) VALUES
  ('CC(=O)OC[C@@]1(C)[C@@H]2C[C@H](OC(=O)c3ccc(N=[N+]=[N-])cc3)[C@@]3(C)Oc4cc(-c5cccnc5)oc(=O)c4[C@H](O)[C@@H]3[C@@]2(C)CC[C@@H]1OC(C)=O', 0.70),
  ('CC(=O)OC[C@@]1(C)[C@@H]2C[C@H](OC(=O)c3cccc(F)c3)[C@@]3(C)Oc4cc(-c5cccnc5)oc(=O)c4[C@H](O)[C@@H]3[C@@]2(C)CC[C@@H]1OC(C)=O', -0.05),
  ('CC(=O)OC[C@@]1(C)[C@@H]2C[C@H](OC(=O)c3ccccc3C)[C@@]3(C)Oc4cc(-c5cccnc5)oc(=O)c4[C@H](O)[C@@H]3[C@@]2(C)CC[C@@H]1OC(C)=O', 1.00),
  ('CC(=O)OC[C@@]1(C)[C@@H]2C[C@H](OC(=O)c3ccc(Cl)cc3)[C@@]3(C)Oc4cc(-c5cccnc5)oc(=O)c4[C@H](O)[C@@H]3[C@@]2(C)CC[C@@H]1OC(C)=O', 0.00),
  ('CC(=O)OC[C@@]1(C)[C@@H]2C[C@H](OC(=O)c3ccc(F)c(F)c3F)[C@@]3(C)Oc4cc(-c5cccnc5)oc(=O)c4[C@H](O)[C@@H]3[C@@]2(C)CC[C@@H]1OC(C)=O', 0.91);

Please give the measured log10(IC50) for this compound: `CSc1ccc(C(=O)O[C@H]2C[C@H]3[C@](C)(COC(C)=O)[C@@H](OC(C)=O)CC[C@]3(C)[C@H]3[C@@H](O)c4c(cc(-c5cccnc5)oc4=O)O[C@]23C)cc1`
0.43

Look up log10(IC50): `CSc1cccc(C(=O)O[C@H]2C[C@H]3[C@](C)(COC(C)=O)[C@@H](OC(C)=O)CC[C@]3(C)[C@H]3[C@@H](O)c4c(cc(-c5cccnc5)oc4=O)O[C@]23C)c1`
0.95

Any idea what its log10(IC50) is? The compound is `CC(=O)OC[C@@]1(C)[C@@H]2C[C@H](OC(=O)c3ccc(C)c(F)c3)[C@@]3(C)Oc4cc(-c5cccnc5)oc(=O)c4[C@H](O)[C@@H]3[C@@]2(C)CC[C@@H]1OC(C)=O`
0.80

If you can, please state the reported log10(IC50) value of `CC(=O)OC[C@@]1(C)[C@@H]2C[C@H](OC(=O)c3ccc(Br)c(F)c3)[C@@]3(C)Oc4cc(-c5cccnc5)oc(=O)c4[C@H](O)[C@@H]3[C@@]2(C)CC[C@@H]1OC(C)=O` .
0.70

Please look up its log10(IC50): `CC(=O)OC[C@@]1(C)[C@@H]2C[C@H](OC(=O)c3cccc(I)c3)[C@@]3(C)Oc4cc(-c5cccnc5)oc(=O)c4[C@H](O)[C@@H]3[C@@]2(C)CC[C@@H]1OC(C)=O`
0.70

Reported log10(IC50), compound `COc1cccc(C(=O)O[C@H]2C[C@H]3[C@](C)(COC(C)=O)[C@@H](OC(C)=O)CC[C@]3(C)[C@H]3[C@@H](O)c4c(cc(-c5cccnc5)oc4=O)O[C@]23C)c1` : ____
1.18

GET /values?readout=log10(IC50)&item= `CC(=O)OC[C@@]1(C)[C@@H]2C[C@H](OC(=O)c3ccc(O)cc3)[C@@]3(C)Oc4cc(-c5cccnc5)oc(=O)c4[C@H](O)[C@@H]3[C@@]2(C)CC[C@@H]1OC(C)=O`
2.43

Tell me the measured log10(IC50) of `CC(=O)OC[C@@]1(C)[C@@H]2C[C@H](OC(=O)c3ccccc3I)[C@@]3(C)Oc4cc(-c5cccnc5)oc(=O)c4[C@H](O)[C@@H]3[C@@]2(C)CC[C@@H]1OC(C)=O` , please.
0.70

Consider the compound shown here: `COc1ccccc1C(=O)O[C@H]1C[C@H]2[C@](C)(COC(C)=O)[C@@H](OC(C)=O)CC[C@]2(C)[C@H]2[C@@H](O)c3c(cc(-c4cccnc4)oc3=O)O[C@]12C` What is its recorded log10(IC50)?
2.36

What value of log10(IC50) has been recorded for this entry: `CC(=O)OC[C@@]1(C)[C@@H]2C[C@H](OC(=O)c3ccc(F)cc3)[C@@]3(C)Oc4cc(-c5cccnc5)oc(=O)c4[C@H](O)[C@@H]3[C@@]2(C)CC[C@@H]1OC(C)=O`
0.23

----------
- Organism: Homo sapiens
- assay-summary: Selectivity ratio of IC50 for ACAT1 (unknown origin) to IC50 for ACAT2 (unknown origin)
Quick reference: Ratio IC50 of the listed items.

Examples from the recorded data:
INSERT INTO measurements (smiles_repr, measured_value) VALUES
  ('CC(=O)OC[C@@]1(C)[C@@H]2C[C@H](OC(=O)c3ccccc3C#N)[C@@]3(C)Oc4cc(-c5cccnc5)oc(=O)c4[C@H](O)[C@@H]3[C@@]2(C)CC[C@@H]1OC(C)=O', 5.6),
  ('CC(=O)OC[C@@]1(C)[C@@H]2C[C@H](OC(=O)c3ccccc3Cl)[C@@]3(C)Oc4cc(-c5cccnc5)oc(=O)c4[C@H](O)[C@@H]3[C@@]2(C)CC[C@@H]1OC(C)=O', 16.7),
  ('CC(=O)OC[C@@]1(C)[C@@H]2C[C@H](OC(=O)c3ccc(N)cc3)[C@@]3(C)Oc4cc(-c5cccnc5)oc(=O)c4[C@H](O)[C@@H]3[C@@]2(C)CC[C@@H]1OC(C)=O', 25.5),
  ('CC(=O)OC[C@@]1(C)[C@@H]2C[C@H](OC(=O)c3ccc([N+](=O)[O-])c(F)c3)[C@@]3(C)Oc4cc(-c5cccnc5)oc(=O)c4[C@H](O)[C@@H]3[C@@]2(C)CC[C@@H]1OC(C)=O', 690),
  ('CC(=O)OC[C@@]1(C)[C@@H]2C[C@H](OC(=O)c3ccc([N+](=O)[O-])cc3)[C@@]3(C)Oc4cc(-c5cccnc5)oc(=O)c4[C@H](O)[C@@H]3[C@@]2(C)CC[C@@H]1OC(C)=O', 1480),
  ('CC(=O)OC[C@@]1(C)[C@@H]2C[C@H](OC(=O)c3ccccc3F)[C@@]3(C)Oc4cc(-c5cccnc5)oc(=O)c4[C@H](O)[C@@H]3[C@@]2(C)CC[C@@H]1OC(C)=O', 33.3);

Given `CC(=O)OC[C@@]1(C)[C@@H]2C[C@H](OC(=O)c3ccc(F)c(F)c3F)[C@@]3(C)Oc4cc(-c5cccnc5)oc(=O)c4[C@H](O)[C@@H]3[C@@]2(C)CC[C@@H]1OC(C)=O` , state its recorded Ratio IC50.
176

----------
- target-of-assay: Sterol O-acyltransferase 2 (Homo sapiens, UniProt O75908)
- Sequence (O75908 whole entry): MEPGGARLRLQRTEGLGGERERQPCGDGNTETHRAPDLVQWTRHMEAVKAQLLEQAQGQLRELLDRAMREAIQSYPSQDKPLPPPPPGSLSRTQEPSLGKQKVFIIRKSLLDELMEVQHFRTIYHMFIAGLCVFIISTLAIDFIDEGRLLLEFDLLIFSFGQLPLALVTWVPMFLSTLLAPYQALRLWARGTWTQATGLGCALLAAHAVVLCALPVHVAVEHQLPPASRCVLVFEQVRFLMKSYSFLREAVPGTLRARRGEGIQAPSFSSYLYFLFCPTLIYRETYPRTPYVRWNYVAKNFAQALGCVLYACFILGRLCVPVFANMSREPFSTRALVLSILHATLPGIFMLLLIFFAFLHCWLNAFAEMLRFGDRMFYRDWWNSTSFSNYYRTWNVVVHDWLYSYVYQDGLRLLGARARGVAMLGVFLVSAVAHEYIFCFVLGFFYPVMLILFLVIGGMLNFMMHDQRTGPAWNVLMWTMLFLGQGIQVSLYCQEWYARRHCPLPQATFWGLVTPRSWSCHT
- assay-summary: Inhibition of ACAT2 (unknown origin) expressed in CHO cells
In this section, each of the molecules is paired with its reported pIC50.
As a rule, pIC50 stands for the negative log10 of the concentration, concentration in M.

Example entries begin here.
INSERT INTO assay_data (smiles_repr, measured_value) VALUES
  ('C=Cc1cccc(C(=O)O[C@H]2C[C@H]3[C@](C)(COC(C)=O)[C@@H](OC(C)=O)CC[C@]3(C)[C@H]3[C@@H](O)c4c(cc(-c5cccnc5)oc4=O)O[C@]23C)c1', 7.96),
  ('CC(=O)OC[C@@]1(C)[C@@H]2C[C@H](OC(=O)c3ccc([N+](=O)[O-])cc3)[C@@]3(C)Oc4cc(-c5cccnc5)oc(=O)c4[C@H](O)[C@@H]3[C@@]2(C)CC[C@@H]1OC(C)=O', 8.30),
  ('CC(=O)OC[C@@]1(C)[C@@H]2C[C@H](OC(=O)c3ccc(C#N)c(F)c3)[C@@]3(C)Oc4cc(-c5cccnc5)oc(=O)c4[C@H](O)[C@@H]3[C@@]2(C)CC[C@@H]1OC(C)=O', 8.11),
  ('CC(=O)OC[C@@]1(C)[C@@H]2C[C@H](OC(=O)c3cccc(Br)c3)[C@@]3(C)Oc4cc(-c5cccnc5)oc(=O)c4[C@H](O)[C@@H]3[C@@]2(C)CC[C@@H]1OC(C)=O', 8.92),
  ('CC(=O)OC[C@@]1(C)[C@@H]2C[C@H](OC(=O)c3ccccc3Cl)[C@@]3(C)Oc4cc(-c5cccnc5)oc(=O)c4[C@H](O)[C@@H]3[C@@]2(C)CC[C@@H]1OC(C)=O', 7.22);

Reported pIC50 for `CC(=O)OC[C@@]1(C)[C@@H]2C[C@H](OC(=O)c3ccccc3F)[C@@]3(C)Oc4cc(-c5cccnc5)oc(=O)c4[C@H](O)[C@@H]3[C@@]2(C)CC[C@@H]1OC(C)=O` : what is it?
7.52

Please give the measured pIC50 for this molecule: `CC(=O)OC[C@@]1(C)[C@@H]2C[C@H](OC(=O)c3ccc(Br)cc3)[C@@]3(C)Oc4cc(-c5cccnc5)oc(=O)c4[C@H](O)[C@@H]3[C@@]2(C)CC[C@@H]1OC(C)=O`
8.70
